Recorded values, source paper PMC11513920.

- protocol text: in vitro
- conditions: human, HepaRG Cmax, 20 μM, HSA formulation 5:1, recorded after 3 h incubation
attribute measured: Cmax (ng/mL)
Just the number in ng/mL, nothing appended.

Challenge: Consider the molecule shown here: CCCCCCCCCCCCCCCCOCCCOP(=O)(O)CO[C@H](C)Cn1cnc2c(N)ncnc21 What is its recorded Cmax?
Response given: 397

---

- protocol text: Cellular cytotoxicity (cell viability, CellTiter 96 or resazurin)
- conditions: human, CC50, HEK293T cells, compounds formulated with HSA (5:1)
Form field: CC50 at 48 h (one value per entry).

Answered cases to consult:
compound	measured
C[C@H](Cn1cnc2c(N)ncnc21)OCP(=O)(O)OCCCSCCCCCCCCCCCSc1ccccc1.N [23b]	> 100 µM
CC(C)[Si](C#CCCCCCCCCCCCSCCCOP(=O)(O)CO[C@H](C)Cn1cnc2c(N)ncnc21)(C(C)C)C(C)C.N [15d]	59.3 µM
CCCCCCCCCCCCCCCCOCCCOP(=O)(O)CO[C@H](C)Cn1cnc2c(N)ncnc21	97.6 µM

Challenge: Consider the compound shown here: C[C@H](Cn1cnc2c(N)ncnc21)OCP(=O)(O)OCCCSCCCCCCCCCCCOc1ccc(F)cc1.N [23c] What is its recorded CC50 at 48 h?
Response given: > 100 µM

Challenge: Consider the compound shown here: C[C@H](Cn1cnc2c(N)ncnc21)OCP(=O)(O)OCCCSCCCCCCCCCCCCCCC(C)(C)C.N [16e] What is its recorded CC50 at 48 h?
Response given: 24 µM

Challenge: Consider the compound shown here: C[C@H](Cn1cnc2c(N)ncnc21)OCP(=O)(O)OCCCSCCCCCCCCCCCCc1ccc(F)cc1.N [16g] What is its recorded CC50 at 48 h?
Response given: > 100 µM

Challenge: Consider the compound shown here: C[C@H](Cn1cnc2c(N)ncnc21)OCP(=O)(O)OCCCSCCCCCCCCCCCOc1ccccc1.N [23a] What is its recorded CC50 at 48 h?
Response given: > 100 µM

Challenge: Consider the compound shown here: C[C@H](Cn1cnc2c(N)ncnc21)OCP(=O)(O)OCCCSCCCCCCCCCCC#CC1CCCCC1.N [15h] What is its recorded CC50 at 48 h?
Response given: > 100 µM

Challenge: Consider the compound shown here: CCCCCCCCCCCCCCSCCCOP(=O)(O)CO[C@H](C)Cn1cnc2c(N)ncnc21.N What is its recorded CC50 at 48 h?
Response given: > 100 µM
